# System: U251 CNS
# ASSAY_NAME: NCI-60 one-dose screen, 48 h (100 = growth as untreated, 0 = no growth, -100 = all killed)
# MEASUREMENT_SETUP: 10 µM unless noted
About 83,000 compounds went through this panel and 20% of them were active in at least one assay; those are over-represented in the sample as a whole.
Field: growth. Provide a value for each of the compounds that follow.
Respond with the bare value in %.

Qu. Which value of growth has been reported for N=C(N)c1ccc(-c2ccc(-c3ccc(Cl)cc3)o2)o1 in the records?
Ans. -95.5

Qu. What about this compound? CCOC(=O)C1=C(C)N=C2SC=C(c3ccccc3)N2[C@H]1c1cn[nH]c1-c1ccc(Cl)cc1
Ans. 31.2

Qu. What about this compound? O[C@@H](c1cc(C(F)(F)F)nc2c(C(F)(F)F)cccc12)[C@H]1CCCCN1
Ans. 47.7

Qu. What about this compound? COc1cc2cc(Oc3ccc(NC(=O)Nc4ccccc4)cc3)c(C)nc2cc1OCCN1CCCCC1
Ans. 21.5

Qu. What about this compound? CCc1cccc(Sc2cc(C(=O)N3Cc4ccc(OCCN(C)C)cc4C3)ccc2O)c1
Ans. 54.9

Qu. What about this compound? CC(O)c1ncc(/C=C2\SC(=S)N(Cc3ccccc3)C2=O)s1 (stereo unspecified)
Ans. 87.9

Qu. What about this compound? Cn1ncc2ccc(-c3nc(-c4ccccc4)[nH]c3-c3n[nH]c(=O)n3C3CC3)cc21
Ans. 100

Qu. What about this compound? CC(C)c1ccc(NC(=O)Nc2ccc(NC(=O)c3ccccc3N)cc2)cc1
Ans. 35.6

Qu. What about this compound? COC(=O)c1ccc2c(c1)c1c(C)c3ccncc3c(C)c1n2C
Ans. 20.9

Qu. What about this compound? COc1cc(-c2nc(NC(C)=O)sc2-c2ccnc(NCCNS(=O)(=O)c3ccccc3)n2)ccc1Cl
Ans. 31.5

Qu. What about this compound? Cc1cc2nc3c4ccccc4n(CCN(C)C)c3nc2cc1C
Ans. 15.7

Qu. What about this compound? CN(C)Cc1ccc(C(=O)Nc2ccc3ncnc(Nc4ccc(Oc5cccc(F)c5)c(Cl)c4)c3c2)cc1
Ans. -28.1

Qu. What about this compound? Cc1c2cnccc2c(C)c2c1c1cc(C3OCCCO3)ccc1n2C
Ans. -1.98

Qu. What about this compound? O=C1Nc2ccccc2C2c3cccn3-c3ccccc3N12 (stereo unspecified)
Ans. 60.2

Qu. What about this compound? COc1ccc(C2CC(c3ccc(Nc4nc(Nc5ccc(F)cc5)nc(Nc5ccc(F)cc5)n4)cc3)=NN2C(C)=O)cc1 (stereo unspecified)
Ans. 84.5

Qu. What about this compound? COC(=O)Cc1nc(C#N)c(N(C)C)o1
Ans. 98.8
